Molecular target: mouse PPARγ (Mus musculus)
Sequence (P37238 204-505): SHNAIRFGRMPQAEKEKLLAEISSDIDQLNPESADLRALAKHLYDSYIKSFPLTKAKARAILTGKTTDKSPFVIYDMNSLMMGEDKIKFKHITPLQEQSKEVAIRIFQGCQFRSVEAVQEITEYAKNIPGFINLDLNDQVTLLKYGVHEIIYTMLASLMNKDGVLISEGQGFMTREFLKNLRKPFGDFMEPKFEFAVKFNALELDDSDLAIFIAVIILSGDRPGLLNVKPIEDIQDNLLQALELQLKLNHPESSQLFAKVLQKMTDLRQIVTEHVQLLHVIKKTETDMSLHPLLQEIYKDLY
Experiment: Luciferase transcriptional reporter gene assay, pFA-PPARγ-LBD in BHK21 cells
Type: cell-based
Set-up: PPARγ (aa 174 to 476) and PPARα (aa 167 to 469); expressed in transfected cells; host or cells: BHK21 (ATCC CCL10)
Conditions: BHK21 cells transfected with pFA-PPARγ-LBD, 24 hours incubation; read-out: PPARγ EC50
pEC50: −log10 of the molar value.
Measured Parameter: pEC50

[a] CO[C@@H](Cc1ccc(OCCc2nc(-c3ccccc3)oc2C)cc1O)C(=O)O
[b] CCO[C@@H](Cc1ccc(OCCCc2nc(-c3ccccc3)oc2C)cc1C)C(=O)O
Input: # compare pEC50 for a vs b ; return the one with the smaller value Write down the label of the entry you select.
Output: a
(a: 6.86, b: 7.24)
